System: AI-2 activity of APEC O8
Assay: AI-2 bioluminescence indicator assay (V. harveyi BB170)
Conditions: APEC O8, 100 µM
parameter_measured: Inhibition % of AI-2 activity
Could you write the number and then its unit?

The examples below pair each entry with its known result.
- compound: "COCCN1CCC(CN(Cc2ccncc2)Cc2ccccc2Cl)CC1"
  endpoint_value: "20%"
- compound: "COC(=S)NN=Cc1cc(C)ccc1O"
  endpoint_value: "0%"
- compound: "O=C(CCN1CCN(c2ccccc2F)CC1)Nc1ccc(Br)cc1"
  endpoint_value: "2%"
- compound: "NC(=O)c1ccccc1Nc1cccc(C(F)(F)F)c1"
  endpoint_value: "39%"
- compound: "Cc1ccccc1N1CCN(C2CCCN(C(=O)c3ccc(F)c(Cl)c3)C2)CC1 (stereo not drawn)"
  endpoint_value: "20%"

Identify Inhibition % of AI-2 activity associated with the compound `Cc1ccc(CN2CCN(CCCc3ccccc3)CC2)cc1`
18%

Identify Inhibition % of AI-2 activity associated with the compound `Fc1ccc(CN2CCCN(Cc3nc(-c4ccc(C(F)(F)F)cc4)no3)CC2)cc1`
20%

Identify Inhibition % of AI-2 activity associated with the compound OCCC1CN(C2CCN(c3ccccc3)CC2)CCN1CCCc1ccccc1 (stereo not drawn)
0%

Identify Inhibition % of AI-2 activity associated with the compound `CCc1ccccc1Nc1nc(-c2c(C)nc3ccccn23)cs1`
18%
